- System: A549
- assay_remarks: NCI tumour cell line growth inhibition, 48 h
The source made the active and inactive calls. Rule as the data show it: active = GI50 up to about 1.1 µM and inactive = higher.
Labels: active, inactive

- compound: "O=C1c2c(O)cccc2C(C(=O)CCCC(=O)C2c3cccc(O)c3C(=O)c3c(O)cccc32)c2cccc(O)c21"
  system_under_test: "A549"
  class_name: "active"
- compound: "CCc1c[n+]([O-])c(C)cc1[N+](=O)[O-]"
  system_under_test: "A549"
  class_name: "inactive"
- compound: "COc1cc(/C=C2/C[C@H]3[C@@H]4CC=C5C[C@@H](O)CC[C@]5(C)[C@H]4CC[C@]3(C)NC2=O)cc(OC)c1OC"
  system_under_test: "A549"
  class_name: "inactive"
- compound: "O=C(c1ccccc1)N1OCCC1Nc1ccc(Br)cc1 (stereo not given)"
  system_under_test: "A549"
  class_name: "inactive"
- compound: "Nc1ncnc2c1ncn2C1OC(CO)C(O)C1O (stereo not given)"
  system_under_test: "A549"
  class_name: "inactive"
- compound: "CC(C)C(/C=C/c1ccccc1)=N\\NC(=S)NN"
  system_under_test: "A549"
  class_name: "inactive"
- compound: "O=C1N(Cc2ccccc2)C2CSCC2N1Cc1ccccc1 (stereo not given)"
  system_under_test: "A549"
  class_name: "inactive"
- compound: "C[N+](C)(N)Cc1nc(-c2ccc(Cl)cc2)no1"
  system_under_test: "A549"
  class_name: "inactive"
- compound: "C[C@H](O)C1CC(Cn2nnc3c(N)ncnc32)C1(C)C (stereo not given in full)"
  system_under_test: "A549"
  class_name: "inactive"
- compound: "N#CC(C(=O)/C(=N/NC(=O)c1ccccc1O)C(C#N)c1ccc(Cl)cc1)c1ccc(Cl)cc1 (stereo not given)"
  system_under_test: "A549"
  class_name: "inactive"

====

# GI50 values compiled below
- Test system: HL-60
- assay_remarks: NCI tumour cell line growth inhibition, 48 h
Calls of active or inactive are those of the source. Cut-off read from the data, not from the text of the source: active = GI50 up to about 1.1 µM and inactive = higher. Where a SMILES comes first, the peptide text is derived from it. Bridges are numbered along the chain shown (N, C = ends). [ ]: non-standard residue; d: D form. The star is where a group is joined. ξ: configuration not given here. PhAc = O=C(Cc1ccccc1)*; ξP = O=C(O)C1CCCN1
experimental_endpoint: GI50

- molecule: "COC(=O)c1c(CC(Cc2ccc3c(c2)CCCC3)C(=O)O)ccc2c1CCCC2 (stereo unspecified)"
  experimental_endpoint: "GI50"
  measured_value: "23 µM (inactive)"
- molecule: "CCOC(=O)/C1=C(\\C)N(Cc2ccccc2)C(=O)c2ccccc2C(=O)c2c(OC(C)=O)ccc(OC(C)=O)c21"
  experimental_endpoint: "GI50"
  measured_value: "29.9 µM (inactive)"
- molecule: "O=C(Cc1ccccc1)N[C@@H]1COC(=O)C2CCCN2C(=O)[C@@H]2CCCN2C1=O (stereo partly specified) (PhAc-[dS]-Pro-[ξP]; ester 1-C)"
  experimental_endpoint: "GI50"
  measured_value: "> 100 µM (inactive)"
- molecule: "CNC(N)NC"
  experimental_endpoint: "GI50"
  measured_value: "> 100 µM (inactive)"
- molecule: "Cc1c(/C=N/NC(=S)Nc2ccc(Cl)cc2)c(=O)n(-c2ccccc2)n1C"
  experimental_endpoint: "GI50"
  measured_value: "> 100 µM (inactive)"
- molecule: "COc1cc(-c2oc3c(OC)c(O)c(OC)c(O)c3c(=O)c2OC)ccc1O"
  experimental_endpoint: "GI50"
  measured_value: "33.5 µM (inactive)"
